# ASSAYED_SYSTEM: G-protein coupled receptor 151 (Homo sapiens)
# PROCEDURE_DETAILS: activators of human GPR151, primary screen, cell-based, PathHunter beta-arrestin, luminescence (AID 1508602);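 further: 0% = median of compound wells and 100% = cells with positive control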
# ASSAY_SETUP: PathHunter beta-arrestin GPR151 cells, at 11.2 µM
The campaign covered roughly 650,000 compounds. About 6,800 (1%) were called active. No stated cut-off is given here; in the data, active means activation above about 4.9%; inactive means the rest. The full list was thinned out, with actives kept by preference.
Tick one outcome: active, inactive

Solved cases below.
>>> class_assignment("COc1ccccc1C1N=C(c2ccc(C)cc2)CC(c2cc(Cl)ccc2O)N1 (stereo not given)")
"inactive"
>>> class_assignment("CCOC(=O)N1CCN(Cc2nc3c(c(=O)n(C)c(=O)n3C)n2CC(C)C)CC1")
"inactive"
>>> class_assignment("O=S(=O)(NCc1csc(-c2cccnc2)n1)c1ccc2ccccc2c1")
"active"
>>> class_assignment("CC(C)CC(=O)Nc1ccc(NC(=O)CC(C)C)c(Cl)c1")
"inactive"
>>> class_assignment("COCCn1c(C)cc(C(=O)CSc2nnc(-c3ccccc3)o2)c1C")
"active"

QUERY: How did this test come out for COCCNc1nc2nonc2nc1N(C)Cc1ccncc1C ?
RESULT: active

QUERY: Another molecule: O=C(CN1C(=O)c2ccccc2C1=O)NC(c1ccccc1)c1ccc(Br)cc1 (stereo not given)
RESULT: active

QUERY: Subsequent entry: Cc1ccccc1-n1c(C)cn2c3c(=O)n(CC(N)=O)c(=O)n(C)c3nc12
RESULT: inactive

QUERY: Record: CC(NC(=O)Cc1ccc(-c2ccccc2)cc1)c1nc(-c2cccnc2)n[nH]1 (stereo not given)
RESULT: inactive

QUERY: Cool, now COCCn1c(C)cc(C(=O)CSc2nnc3scc(-c4ccc(C)cc4)n23)c1C
RESULT: inactive

###

# ASSAYED_SYSTEM: G-protein coupled receptor 151 (Homo sapiens) (UniProt Q8TDV0)
# Sequence (Q8TDV0 whole entry, looked up): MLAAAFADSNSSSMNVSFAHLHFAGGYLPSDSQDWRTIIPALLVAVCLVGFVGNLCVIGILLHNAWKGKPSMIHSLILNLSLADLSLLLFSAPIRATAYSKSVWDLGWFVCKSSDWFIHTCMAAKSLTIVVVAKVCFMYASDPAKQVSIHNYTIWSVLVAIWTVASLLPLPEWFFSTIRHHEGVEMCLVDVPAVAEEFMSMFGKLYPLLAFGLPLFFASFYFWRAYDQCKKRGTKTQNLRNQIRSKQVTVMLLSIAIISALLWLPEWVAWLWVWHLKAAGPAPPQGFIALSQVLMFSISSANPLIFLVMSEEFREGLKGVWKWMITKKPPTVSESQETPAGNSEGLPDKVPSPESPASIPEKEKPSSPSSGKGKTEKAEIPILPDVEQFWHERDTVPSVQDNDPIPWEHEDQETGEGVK
# PROCEDURE_DETAILS: activators of human GPR151, primary screen, cell-based, PathHunter beta-arrestin, luminescence (AID 1508602);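 further: 0% = median of compound wells and 100% = cells with positive control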
# ASSAY_SETUP: PathHunter beta-arrestin GPR151 cells, at 11.2 µM
The campaign covered roughly 650,000 compounds. About 6,800 (1%) were called active. Rule as the data show it: active = activation above about 4.9%; inactive = the rest. What follows is part of a selection rich in actives, with near analogues and random picks from the rest.
# valid calls are y = active, n = inactive; nothing else

QUERY: What classification did COCCOC(=O)C1=C(N)OC2=C(C(=O)CC(C)(C)C2)C1c1ccc(F)c(F)c1 (stereo unspecified) end up with in this test?
RESULT: n

QUERY: Param item: CCN1CCN(C(=O)C(C)Oc2ccc(Cl)cc2Cl)CC1 (stereo unspecified)
RESULT: n

QUERY: Again, but for COc1cc(C2C(C#N)=C(N)Oc3c2c(C)nn3-c2ccccc2)ccc1OCC#N (stereo unspecified)
RESULT: n

QUERY: Next up: CN1CCN(c2ccc(-c3nc4ccc(C(=O)NCc5ccccc5)cc4s3)cc2)CC1
RESULT: n

QUERY: What do we get for O=C(Cn1c(=O)n(Cc2cccs2)c(=O)c2cccnc21)Nc1ccc(F)cc1 ?
RESULT: y

###

# ASSAYED_SYSTEM: G-protein coupled receptor 151 (Homo sapiens)
# PROCEDURE_DETAILS: activators of human GPR151, primary screen, cell-based, PathHunter beta-arrestin, luminescence (AID 1508602);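 further: 0% = median of compound wells and 100% = cells with positive control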
# ASSAY_SETUP: PathHunter beta-arrestin GPR151 cells, at 11.2 µM
Hit rate of the full screen: of about 650,000 compounds, about 6,800 (1%) were called active. No stated cut-off is given here; in the data, active means activation above about 4.9%; inactive means the rest. The sample holds actives, similar compounds and a random draw of the others, so the mix is not that of the screen.
Your reply should match one of these outcome classes. active, inactive

Illustrative cases are given below, each with its answer.
>>> class_assignment("COc1ccc(C(=O)NCC(=O)O)cc1[N+](=O)[O-]")
"inactive"
>>> class_assignment("Cc1ccc(C(=O)NCc2nc3nc(C)cc(C)n3n2)cc1")
"inactive"
>>> class_assignment("Fc1ccccc1OCCSc1nc2ccccc2o1")
"active"
>>> class_assignment("COc1ccccc1-c1cc(N)n(S(=O)(=O)c2ccccc2)n1")
"inactive"
>>> class_assignment("N#Cc1ccccc1CSc1nc2ccccc2o1")
"inactive"
>>> class_assignment("Nc1nc(NC(=O)/C=C/c2ccccc2)nn1-c1ccccc1")
"inactive"

QUERY: I'd appreciate the recorded outcome for COC(Cn1c(=S)[nH]c2cc3ccccc3cc2c1=O)OC from this test.
RESULT: inactive

QUERY: Request: Cc1ccc(S(=O)(=O)NCc2nc3nc(C)cc(C)n3n2)cc1
RESULT: active

###

# ASSAYED_SYSTEM: G-protein coupled receptor 151 (Homo sapiens) (UniProt Q8TDV0)
# PROCEDURE_DETAILS: activators of human GPR151, primary screen, cell-based, PathHunter beta-arrestin, luminescence (AID 1508602);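 further: 0% = median of compound wells and 100% = cells with positive control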
# ASSAY_SETUP: PathHunter beta-arrestin GPR151 cells, at 11.2 µM
The whole screen tested about 650,000 compounds, of which about 6,800 (1%) were called active. Cut-off read from the data, not from the text of the source: active = activation above about 4.9%; inactive = the rest. The sample as a whole holds a higher share of actives than the screen did.
Thanks in advance; please answer with one of these: label 1 = active, label 0 = inactive

Answered cases to consult:
>>> class_assignment("CC1(C)C(=O)C2(C(=O)Nc3cccc(C(F)(F)F)c3)CCC1C2 (stereo unspecified)")
"label 0"
>>> class_assignment("Cc1c(C(=O)Nc2nnc(C3CC3)s2)oc2ccc(Br)cc12")
"label 0"
>>> class_assignment("COc1cccc(N(CC(=O)NCCSc2ccccn2)S(C)(=O)=O)c1")
"label 0"
>>> class_assignment("COc1cccc(/C=N/NC(=O)CSc2nc(C)cc(C)n2)c1OC")
"label 0"
>>> class_assignment("CC(/C=N\\NC(=O)CSc1nc(C)cc(C)n1)=C\\c1ccccc1")
"label 1"

QUERY: Per the assay record, what outcome was assigned to COc1cc(NC(=O)c2cccc(Br)c2)ccc1NC(=O)c1ccco1 ?
RESULT: label 0

###

# ASSAYED_SYSTEM: G-protein coupled receptor 151 (Homo sapiens)
# PROCEDURE_DETAILS: activators of human GPR151, primary screen, cell-based, PathHunter beta-arrestin, luminescence (AID 1508602);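 further: 0% = median of compound wells and 100% = cells with positive control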
# ASSAY_SETUP: PathHunter beta-arrestin GPR151 cells, at 11.2 µM, stronger effect = higher value
Among all 650,000 compounds or so, about 6,800 (1%) were called active. Shown is part of a subset that was picked to be rich in actives.
activation for assorted molecules
State just the number; it will be interpreted in %.

Sample answers from the record:
>>> recorded_number("O=C(CCC1=NS(=O)(=O)c2ccccc2N1)N1CCN(c2ccccc2)CC1")
0.684
>>> recorded_number("N#CCCCSc1nnc(-c2ccc(C#N)cc2)o1")
-0.162
>>> recorded_number("COc1cccc(/C=C2\\C(=O)NC(=O)N(c3ccccc3Cl)C2=O)c1")
1.26
>>> recorded_number("O=C(NCCc1ccsc1)c1ccccc1Cl")
-3.26

QUERY: # get_value(readout='activation', item= CNC(=O)C(NC(=O)c1ccc([N+](=O)[O-])cc1)C12CC3CC(CC(C3)C1)C2 (stereo not given) )
RESULT: 0.352

###

# ASSAYED_SYSTEM: G-protein coupled receptor 151 (Homo sapiens) (UniProt Q8TDV0)
# PROCEDURE_DETAILS: activators of human GPR151, primary screen, cell-based, PathHunter beta-arrestin, luminescence (AID 1508602);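 further: 0% = median of compound wells and 100% = cells with positive control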
# ASSAY_SETUP: PathHunter beta-arrestin GPR151 cells, at 11.2 µM, stronger effect = higher value
The campaign covered roughly 650,000 compounds. About 6,800 (1%) were called active. Shown is part of a subset that was picked to be rich in actives.
The reader will find reported activation values listed item by item below.

Below, each entry is followed by its recorded activation result.
>>> result("CCCCCC(=O)N/N=C(/C)c1ccc(O)cc1O")
"7.91% (active)"
>>> result("CCOC(=O)c1ccc(NC(=O)CSc2nc(NCc3ccc(Cl)cc3)c3ccccc3n2)cc1")
"-0.895% (inactive)"

QUERY: Fill in the blank: the reported activation of O=C1CC[C@@H](CN(Cc2ccccn2)Cc2nc(-c3ccc4c(c3)OCO4)no2)N1 is ____.
RESULT: -0.5% (inactive)

###

# ASSAYED_SYSTEM: G-protein coupled receptor 151 (Homo sapiens) (UniProt Q8TDV0)
# PROCEDURE_DETAILS: activators of human GPR151, primary screen, cell-based, PathHunter beta-arrestin, luminescence (AID 1508602);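 further: 0% = median of compound wells and 100% = cells with positive control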
# ASSAY_SETUP: PathHunter beta-arrestin GPR151 cells, at 11.2 µM, stronger effect = higher value
Hit rate of the full screen: of about 650,000 compounds, about 6,800 (1%) were called active. For the sample, actives were picked, then their nearest neighbours and some compounds at random.
Each item that follows carries a reported activation.
// note: answer is a bare numeric in %

// known answers, use as guide
>>> recorded_number("CCOC(=O)c1cnc2c(C)c(Cl)ccc2c1Nc1cccc(C)c1")
1.7
>>> recorded_number("COc1ccc(NC(=O)CSc2nc(=O)n(CCCN(C)C)c3c2CCC3)cc1OC")
-0.304
>>> recorded_number("O=C(Nc1ccc(NC(=O)c2cccnc2Cl)cc1)c1ccco1")
0.162
>>> recorded_number("O=C(NCCc1ccccc1)C(=O)NCCC1CCCCC1")
-1.51
>>> recorded_number("COc1cc(NC(=O)c2sc3ncnc(N4CCCCC4)c3c2C)cc(OC)c1OC")
5.99

QUERY: Report activation for Cc1sc(NC(=O)CN(C(=O)c2cccc(F)c2)C2CCCC2)c(C(N)=O)c1C tested on G-protein coupled receptor 151 (Homo sapiens) (UniProt Q8TDV0).
RESULT: 0.439

QUERY: Again, but for COc1ccc(NC(=S)N2CCN(S(=O)(=O)c3ccc(F)cc3)CC2)c(OC)c1
RESULT: 8.74

QUERY: Same again, this time with COc1ccc(NC(=O)c2sc3ncnc(N4CCCCC4)c3c2C)cc1OC
RESULT: 0.695

QUERY: Quick one: COc1ccc(F)c(CC2(CCC(=O)N(CCO)Cc3ccccc3)CCC(=O)N2)c1 (centres undefined)
RESULT: -0.346

QUERY: // query: O=CN1CCN(CCC(=O)Nc2ccccc2)CC1
RESULT: 5.13

QUERY: Repeat with CC1CCN(C(=O)C(NS(=O)(=O)c2ccc3c(c2)oc(=O)n3C)C(C)C)CC1 (centres undefined)
RESULT: 7.77

QUERY: Continue with COc1cc(C(=O)Nc2c3c(nn2-c2ccc(F)cc2)CSC3)cc(OC)c1OC
RESULT: 1.91

QUERY: And the next one, CC(=O)NS(=O)(=O)c1ccc(NC(=O)/C=C/c2ccccc2Cl)cc1 ?
RESULT: 0.647

QUERY: COC(=O)CCCNC(=O)CC1C(=O)NCCN1Cc1ccc2ccccc2c1 (centres undefined) ?
RESULT: -0.306
